Parameter: IC50. Scope: all listed entries.
- Measurement target: PDGFRβ (Rattus norvegicus (Rat), UniProt Q05030)
- Sequence (Q05030 32-1097): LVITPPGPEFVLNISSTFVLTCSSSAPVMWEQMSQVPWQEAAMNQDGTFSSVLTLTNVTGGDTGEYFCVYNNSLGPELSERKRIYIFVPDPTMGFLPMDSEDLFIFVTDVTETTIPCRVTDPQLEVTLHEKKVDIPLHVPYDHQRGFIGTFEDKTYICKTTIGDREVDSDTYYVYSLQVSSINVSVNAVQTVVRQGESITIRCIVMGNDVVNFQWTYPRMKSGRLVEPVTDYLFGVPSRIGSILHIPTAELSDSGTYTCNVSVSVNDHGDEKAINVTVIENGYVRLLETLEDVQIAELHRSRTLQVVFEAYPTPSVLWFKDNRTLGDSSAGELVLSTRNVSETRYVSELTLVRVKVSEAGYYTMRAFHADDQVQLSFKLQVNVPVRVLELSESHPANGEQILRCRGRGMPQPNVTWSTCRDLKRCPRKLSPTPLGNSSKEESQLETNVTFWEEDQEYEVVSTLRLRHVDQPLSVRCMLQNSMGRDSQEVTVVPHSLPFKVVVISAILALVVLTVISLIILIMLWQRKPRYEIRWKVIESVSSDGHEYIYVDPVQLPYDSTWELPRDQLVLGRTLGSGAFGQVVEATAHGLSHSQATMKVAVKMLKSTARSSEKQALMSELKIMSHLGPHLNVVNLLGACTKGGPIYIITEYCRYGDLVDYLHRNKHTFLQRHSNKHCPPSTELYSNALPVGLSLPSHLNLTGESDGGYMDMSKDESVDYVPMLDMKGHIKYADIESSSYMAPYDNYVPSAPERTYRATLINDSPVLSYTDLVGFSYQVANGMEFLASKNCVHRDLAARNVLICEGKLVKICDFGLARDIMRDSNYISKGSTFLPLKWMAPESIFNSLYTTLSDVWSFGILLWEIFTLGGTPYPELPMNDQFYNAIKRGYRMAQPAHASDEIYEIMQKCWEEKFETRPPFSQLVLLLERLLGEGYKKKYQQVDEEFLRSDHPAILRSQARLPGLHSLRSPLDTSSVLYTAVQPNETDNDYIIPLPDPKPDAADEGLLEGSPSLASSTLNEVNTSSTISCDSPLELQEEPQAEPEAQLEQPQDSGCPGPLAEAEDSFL
- Protocol notes: PDGFRβ Cellular Assay (PDGFRb P-Y751 HTRF in A10 cells stimulated with PDGF-BB)
- Format: cell-based
- Experimental conditions: PDGFR Cellular IC50
# include the unit after the value

Worked examples, 3 molecules total:
[
  {
    "Molecule": "COC1CCN(CC(=O)Nc2cnc(C)c(NC(=O)c3cnn4cc(-c5cn(C)nc5C)sc34)c2)C1 (centres unmarked) [Example 439]",
    "Quantity": "IC50",
    "Result": "12.2 nM"
  },
  {
    "Molecule": "Cc1ncc(NC(=O)CN2CCc3ccncc3C2)cc1NC(=O)c1cnn2cc(-c3cnn(C)c3)sc12 [Example 23]",
    "Quantity": "IC50",
    "Result": "67.7 nM"
  },
  {
    "Molecule": "Cc1ncc(NC(=O)CN2C[C@H](C)O[C@@H](C)C2)cc1NC(=O)c1cnn2cc(-c3ccc[nH]c3=O)sc12 (relative stereo) [Example 370]",
    "Quantity": "IC50",
    "Result": "544 nM"
  }
]

### Prompt Lookup: IC50 / PDGFRβ (Rattus norvegicus (Rat), UniProt Q05030) / Cc1ncc(NC(=O)C2CCN(C(C)C)C2)cc1NC(=O)c1cnn2cc(-c3cnn(C)c3C)sc12 (centres unmarked) [Example 356]
### Response 74.6 nM

### Prompt Provide value of IC50 for this record tested with PDGFRβ (Rattus norvegicus (Rat), UniProt Q05030): Cc1ncc(C(=O)NCCN2CC3CCC2CC3)cc1NC(=O)c1cnn2cc(-c3cnn(C)c3)sc12 [Example 1]
### Response 33.8 nM

### Prompt API: value(readout= IC50, system= PDGFRβ (Rattus norvegicus (Rat), UniProt Q05030), query= Cc1ncc(NC(=O)CCCN2CCC23CCC3)cc1NC(=O)c1cnn2cc(-c3cnn(C)c3)sc12 [Example 215] )
### Response 80.1 nM

### Prompt API: value(readout=IC50, system=PDGFRβ (Rattus norvegicus (Rat), UniProt Q05030)) for record COCCn1cc(-c2cn3ncc(C(=O)Nc4cc(NC(=O)CCCN5CCC[C@@H]5C)cnc4C)c3s2)cn1 [Example 216]
### Response 626 nM

### Prompt Short answer please: IC50, PDGFRβ (Rattus norvegicus (Rat), UniProt Q05030), entry Cc1ncc(NC(=O)CN2C[C@@H](C)O[C@H](C)C2)cc1NC(=O)c1cnn2cc(-c3cnn(CCS(C)(=O)=O)c3)sc12 (relative stereo) [Example 432]
### Response 420 nM
